For each of the molecules below, state its melting point.

These solved cases illustrate the format of a correct answer.
1. Clc1ccc(/C=N/N=C(/Cn2nnc3ccccc32)c2ccc(Br)cc2)cc1Cl; 198 to 199 °C
2. Oc1c(Cl)cc(Cl)cc1/C=N/N=C(/Cn1nnc2ccccc21)c1ccc(Cl)cc1Cl; 199 to 200 °C
3. Brc1ccc(/C(Cn2nnc3ccccc32)=N\N=C\c2ccc3ccccc3c2)cc1; 196 to 197 °C

For each of the molecules below, state melting point.
1. O=Cc1ccc(/C=N/N=C(/Cn2nnc3ccccc32)c2ccc(Br)cc2)cc1
2. O=[N+]([O-])c1ccc(/C(Cn2nnc3ccccc32)=N\N=C\c2ccc(O)cc2)cc1
3. O=[N+]([O-])c1ccc(/C(Cn2nnc3ccccc32)=N\N=C\c2ccc(Cl)c(Cl)c2)cc1
4. O=[N+]([O-])c1ccc(/C=N/N=C(/Cn2nnc3ccccc32)c2ccc(Cl)cc2Cl)cc1

Given back:
1: 193 to 194 °C; 2: 190 to 191 °C; 3: 194 to 195 °C; 4: 194 to 195 °C

For each of the molecules below, state melting point.
1. COc1cccc(/C(Cn2nnc3ccccc32)=N\N=C\c2cc(Cl)cc(Cl)c2O)c1
2. O=[N+]([O-])c1cccc(/C=N/N=C(/Cn2nnc3ccccc32)c2ccc(Br)cc2)c1
3. O=[N+]([O-])c1ccc(/C=N/N=C(/Cn2nnc3ccccc32)c2ccc(Br)cc2)cc1
4. Oc1c(Cl)cc(Cl)cc1/C=N/N=C(/Cn1nnc2ccccc21)c1ccc(Br)cc1
5. O=[N+]([O-])c1ccc(/C(Cn2nnc3ccccc32)=N\N=C\c2cc(Cl)cc(Cl)c2O)cc1
6. COc1cccc(/C(Cn2nnc3ccccc32)=N\N=C\c2cccc([N+](=O)[O-])c2)c1

Given back:
1. 195 to 196 °C
2. 196 to 197 °C
3. 196 to 197 °C
4. 196 to 197 °C
5. 197 to 198 °C
6. 192 to 193 °C

For each of the molecules below, state melting point.
1. O=[N+]([O-])c1cccc(/C(Cn2nnc3ccccc32)=N\N=C\c2cc(Cl)cc(Cl)c2O)c1
2. O=[N+]([O-])c1ccc(/C=N/N=C(/Cn2nnc3ccccc32)c2ccc([N+](=O)[O-])cc2)cc1
3. O=[N+]([O-])c1ccc(/C(Cn2nnc3ccccc32)=N\N=C\c2cccc([N+](=O)[O-])c2)cc1
4. O=[N+]([O-])c1cccc(/C=N/N=C(/Cn2nnc3ccccc32)c2ccc(Cl)cc2Cl)c1
5. Brc1ccc(/C(Cn2nnc3ccccc32)=N\N=C\c2c3ccccc3cc3ccccc23)cc1

Given back:
1. 197 to 198 °C
2. 191 to 192 °C
3. 191 to 192 °C
4. 194 to 195 °C
5. 201 to 202 °C
